Form field: relative viability (one value per entry).
Tested on: 621-102 (TSC2-deficient)
Assay: relative viability vs DMSO; higher = less cytotoxic
Conditions: 1 µM; serum: 10% FBS; 72 h
Counter-ions that a name gives are not always drawn.
Answers without a unit are incomplete; give the number and then its unit.

Known results for compounds:
[[record]]
compound = "CC(=O)O[C@H]1C(=O)[C@@]2(C)[C@H]([C@H](OC(=O)c3ccccc3)[C@]3(O)C[C@H](OC(=O)[C@H](O)[C@@H](NC(=O)c4ccccc4)c4ccccc4)C(C)=C1C3(C)C)[C@]1(OC(C)=O)CO[C@@H]1C[C@@H]2O"
targetdesc = "621-102 (TSC2-deficient)"
value = "29.6%"

[[record]]
compound = "Cc1[nH]c(=O)c(C#N)cc1-c1ccncc1"
targetdesc = "621-102 (TSC2-deficient)"
value = "107%"

[[record]]
compound = "CN(c1ncccc1CNc1nc(Nc2ccc3c(c2)CC(=O)N3)ncc1C(F)(F)F)S(C)(=O)=O"
targetdesc = "621-102 (TSC2-deficient)"
value = "94.8%"

[[record]]
compound = "CC(C[N+](C)(C)C)OC(N)=O (stereo not drawn) [Bethanechol chloride]"
targetdesc = "621-102 (TSC2-deficient)"
value = "100%"


Bench note: what relative viability did "CC(C)(C#N)c1cc(Cn2cncn2)cc(C(C)(C)C#N)c1" show?
120%

Bench note: what relative viability did CN1CCc2c(c3ccccc3n2Cc2ccc(C(=O)NO)cc2)C1 [Tubastatin A HCl] show?
82.6%

Bench note: what relative viability did "NC1=N[C@@]2(c3cc(NC(=O)c4ccc(F)cn4)ccc3F)COC[C@H]2CS1" show?
99.9%

Bench note: what relative viability did "COc1ccc2c3n(c(=NC(=O)c4cccnc4)nc2c1OC)CCN3" show?
110%

Bench note: what relative viability did "CC(C)OC(=O)C1=CN(C(=O)c2ccc(F)c(F)c2)CC(C)(C)c2c1[nH]c1ccccc21" show?
101%

Bench note: what relative viability did "C#Cc1cccc(Nc2ncnc3cc(OCCOC)c(OCCO)cc23)c1" show?
115%

Bench note: what relative viability did "NC1(c2ccc(-c3nc4ccn5c(=O)[nH]nc5c4cc3-c3ccccc3)cc2)CCC1" show?
95.7%

Bench note: what relative viability did Nc1[nH]cnc2ncnc1-2 [Adenine HCl] show?
96.5%

Bench note: what relative viability did "c1ccc2c(-c3cnn4cc(-c5ccc(N6CCNCC6)cc5)cnc34)ccnc2c1" show?
71.9%

Bench note: what relative viability did C[N+]1(C)[C@@H]2C[C@@H](OC(=O)C(O)(c3cccs3)c3cccs3)C[C@H]1[C@@H]1O[C@@H]12 [Tiotropium] show?
117%

Bench note: what relative viability did "O=C(NC[C@H]1CN(c2ccc(N3CCOCC3=O)cc2)C(=O)O1)c1ccc(Cl)s1" show?
116%

----------
System: 621-102 (TSC2-deficient)
Experiment: relative viability vs DMSO; higher = less cytotoxic
Details: 0.1 µM; serum: 10% FBS; 72 h
Lab note - cut at 90% for relative viability: fulfilled if strictly below, not fulfilled if not.

[[record]]
molecule = "CCC[C@H](Nc1nc(-c2ccc(NC(=O)NCC)c(OC)c2)ncc1C)c1cccnc1 [CYT997]"
labelclass = "fulfilled"

[[record]]
molecule = "COC1=C2C[C@@H](C)C[C@H](OC)[C@H](O)[C@@H](C)/C=C(\\C)[C@H](OC(N)=O)[C@@H](OC)/C=C\\C=C(/C)C(=O)NC(=CC1=O)C2=O [Geldanamycin]"
labelclass = "fulfilled"

[[record]]
molecule = "CC(C)c1cnn2c(NCc3ccccc3)cc(NCCCCCCN)nc12 [BS-181]"
labelclass = "not fulfilled"

[[record]]
molecule = "O=c1cc(-c2ccc(O)c(O)c2)oc2cc(O)cc(O)c12 [Luteolin (Luteolol)]"
labelclass = "not fulfilled"

[[record]]
molecule = "CN(C)C(=O)Oc1cccc([N+](C)(C)C)c1 [Neostigmine bromide (Prostigmin)]"
labelclass = "not fulfilled"


relative viability under 90%? Item: CCS(=O)(=O)Nc1ccc2c(c1)/C(=C(/Nc1ccc(CN3CCCCC3)cc1)c1ccccc1)C(=O)N2 [Hesperadin]
fulfilled

relative viability under 90%? Item: CNC[C@H](O)c1ccc(O)c(O)c1 [Epinephrine bitartrate]
not fulfilled

relative viability under 90%? Item: O=C1N=C(O)NC1(c1ccccc1)c1ccccc1 [Phenytoin sodium]
fulfilled

relative viability under 90%? Item: NC(=O)c1ccc(I)c([N+](=O)[O-])c1 [BSI-201]
not fulfilled

----------
Tested on: 621-102 (TSC2-deficient)
Test: relative viability vs DMSO (fraction); higher = less cytotoxic
Conditions: 0.32 nM; serum: 0.1% FBS; 72 h
Counter-ions that a name gives are not always drawn.
Form field: relative viability (one value per entry).

Known results for compounds:
[[record]]
compound = "CCC[C@H](NC(=O)/C(C#N)=C/c1cccc(Br)n1)c1ccccc1"
value = 1.59

[[record]]
compound = "Cn1cncc1[C@@](N)(c1ccc(Cl)cc1)c1ccc2c(c1)c(-c1cccc(Cl)c1)cc(=O)n2C"
value = 0.634


relative viability of "CCCCc1nc2cc(/C=C/C(=O)NO)ccc2n1CCN(CC)CC" on 621-102 (TSC2-deficient)?
0.868

relative viability of "CO[C@H]1C[C@@H]2CC[C@@H](C)[C@@](O)(O2)C(=O)C(=O)N2CCCC[C@H]2C(=O)O[C@H]([C@H](C)C[C@@H]2CC[C@@H](OP(C)(C)=O)[C@H](OC)C2)CC(=O)[C@H](C)/C=C(\C)[C@@H](O)[C@@H](OC)C(=O)[C@H](C)C[C@H](C)/C=C/C=C/C=C/1C" on 621-102 (TSC2-deficient)?
0.523

relative viability of CC[C@@]1(O)C(=O)OCc2c1cc1n(c2=O)Cc2cc3c(CN(C)C)c(O)ccc3nc2-1 [Topotecan Hydrochloride] on 621-102 (TSC2-deficient)?
1.06

relative viability of "Cn1cc(CNCC2CCN(c3ncc(C(=O)NO)cn3)CC2)c2ccccc21" on 621-102 (TSC2-deficient)?
0.708

relative viability of "CC(C)[C@H](C(=O)Nc1ccc(C(=O)NO)cc1)c1ccccc1" on 621-102 (TSC2-deficient)?
1.01

----------
Form field: relative viability (one value per entry).
Test system: 621-103 (TSC2-rescued)
Experiment: relative viability vs DMSO; higher = less cytotoxic
Conditions: 0.0001 µM; serum: 10% FBS; 72 h
Where a name gives a salt, the structure may show the parent alone.
Answers without a unit are incomplete; give the number and then its unit.

Known results for molecules:
[[record]]
molecule = "COC(=O)Nc1nc2cc(Sc3ccccc3)ccc2[nH]1"
value = "108%"

[[record]]
molecule = "Cn1cc(-c2ccc3nnc(C(F)(F)c4ccc5ncccc5c4)n3n2)cn1"
value = "102%"

[[record]]
molecule = "COCC[n+]1c2c(n(Cc3cnccn3)c1C)C(=O)c1ccccc1C2=O"
value = "103%"

[[record]]
molecule = "CC[C@@H]1C(=O)N(C)c2cnc(Nc3ccc(C(=O)NC4CCN(C)CC4)cc3OC)nc2N1C1CCCC1"
value = "98.6%"

[[record]]
molecule = "CN1[C@@H]2CC[C@H]1C[C@@H](OC(=O)c1c[nH]c3ccccc13)C2 [Tropisetron HCl]"
value = "89.7%"

[[record]]
molecule = "Nc1[nH]cnc2ncnc1-2 [Adenine HCl]"
value = "95.5%"

[[record]]
molecule = "CN(C)CCCN1c2ccccc2CCc2ccc(Cl)cc21 [Clomipramine HCl]"
value = "100%"

[[record]]
molecule = "O=C(/C=C/c1cccc(S(=O)(=O)Nc2ccccc2)c1)NO"
value = "97.7%"

[[record]]
molecule = "S=C(NCc1ccc2c(c1)OCO2)N1CCN(c2ncnc3c2oc2ccccc23)CC1"
value = "88.5%"

[[record]]
molecule = "NC1(Cc2ccc(Cl)cc2)CCN(c2ncnc3[nH]ccc23)CC1"
value = "114%"


Shift focus to the following entry.
Bench note: what relative viability did "Cn1c(Nc2ccc(C(F)(F)F)cc2)nc2cc(Oc3ccnc(-c4ncc(C(F)(F)F)[nH]4)c3)ccc21" show?
99.7%

----------
System: 621-103 (TSC2-rescued)
Test: relative viability vs DMSO; higher = less cytotoxic
Conditions: 0.1 µM; serum: 10% FBS; 72 h
metricName: relative viability (%)
Express the result in % but write the number alone.

[[record]]
compound = "C[C@@H]1CCO[C@H]2Cn3cc(C(=O)NCc4ccc(F)cc4F)c(=O)c(O)c3C(=O)N12"
targetdesc = "621-103 (TSC2-rescued)"
valueunits = "%"
value = 117


Bench note: what relative viability did CC[C@H]1OC(=O)[C@H](C)[C@@H](O[C@H]2C[C@@](C)(OC)[C@@H](O)[C@H](C)O2)[C@H](C)[C@@H](O[C@@H]2O[C@H](C)C[C@H](N(C)C)[C@H]2O)[C@](C)(OC)C[C@@H](C)C(=O)[C@H](C)[C@@H](O)[C@]1(C)O [Clarithromycin (Biaxin,Klacid)] show?
102

Bench note: what relative viability did CCC(C)(Oc1ccc(C2(c3ccc(OC(C)(CC)C(=O)O)cc3)CCCCC2)cc1)C(=O)O (configuration not stated) [Clinofibrate] show?
105

Bench note: what relative viability did O=C(Cc1ccc(-c2ccc(OCCN3CCOCC3)cc2)cn1)NCc1ccccc1 [KX2-391] show?
50.8

Bench note: what relative viability did COc1cc(N2CCC(N3CCN(C)CC3)CC2)ccc1Nc1ncc(Cl)c(Nc2ccccc2S(=O)(=O)C(C)C)n1 [NVP-TAE684] show?
99.3

Bench note: what relative viability did CCOC(=O)[C@H](CCc1ccccc1)N[C@@H](C)C(=O)N1[C@H](C(=O)O)C[C@@H]2CCC[C@@H]21 [Ramipril] show?
106

Bench note: what relative viability did CC1(C)CNc2cc(NC(=O)c3cccnc3NCc3ccncc3)ccc21 [Motesanib DiPhosphate] show?
102
